- TEST_SYSTEM: T1, GST-human NOGO-A56 (human, UniProt P08515 1-218 = GST)
- T1 construct: GST-tagged fusion expressed in E. coli BL21 and purified on glutathione-sepharose; coated on ELISA plates or amine-coupled to a CM5 chip; also called hNOGO; recombinant human NOGO
- T1 sequence (P08515 1-218, tags or fused parts left off): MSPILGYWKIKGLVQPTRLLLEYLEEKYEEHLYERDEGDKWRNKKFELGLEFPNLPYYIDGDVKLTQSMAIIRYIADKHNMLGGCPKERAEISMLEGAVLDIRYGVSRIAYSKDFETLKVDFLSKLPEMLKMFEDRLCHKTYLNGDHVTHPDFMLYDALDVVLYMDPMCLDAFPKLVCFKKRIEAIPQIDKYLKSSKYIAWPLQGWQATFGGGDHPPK
- PROCEDURE_DETAILS: SPR (Biacore 3000), GST-human NOGO-A56 on CM5, antibody as analyte; single experiment
QUANTITY_KIND: kon (M⁻¹ s⁻¹)

{"BINDER": "H6L13 (antibody, human IgG1, kappa, V domains shown, Humanised 2A10; Human gamma1 mutated constant region and human kappa; also called H6L13 FL) VH: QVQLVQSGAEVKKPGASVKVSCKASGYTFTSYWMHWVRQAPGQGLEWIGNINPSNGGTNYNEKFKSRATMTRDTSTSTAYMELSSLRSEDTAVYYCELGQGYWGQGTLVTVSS VL: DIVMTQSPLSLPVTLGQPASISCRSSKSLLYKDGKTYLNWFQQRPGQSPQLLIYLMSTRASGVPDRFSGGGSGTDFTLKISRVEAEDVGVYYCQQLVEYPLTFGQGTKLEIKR", "QUANTITY_KIND": "kon", "UNIT_NAME": "M⁻¹ s⁻¹", "NUMERIC_READOUT": "1.77e+06"}
{"BINDER": "H1L11 (antibody, human IgG1, kappa, V domains shown, Earlier humanised 2A10) VH: QVQLVQSGAEVKKPGASVKVSCKASGYTFTSYWMHWVRQAPGQGLEWMGNINPSNGGTNYNEKFKSRVTMTRDTSTSTVYMELSSLRSEDTAVYYCELGQGYWGQGTLVTVSS VL: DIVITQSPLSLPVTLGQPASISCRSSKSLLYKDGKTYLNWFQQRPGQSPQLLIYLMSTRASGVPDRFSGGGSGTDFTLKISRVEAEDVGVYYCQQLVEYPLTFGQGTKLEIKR", "QUANTITY_KIND": "kon", "UNIT_NAME": "M⁻¹ s⁻¹", "NUMERIC_READOUT": "1.33e+06"}
{"BINDER": "HcLc (chimera of 2A10: murine 2A10 VH and VL with human IgG constant regions) (antibody, V domains shown, Human gamma1 mutated constant region and human kappa; also called 2A10 chimeric antibody; the chimera) VH: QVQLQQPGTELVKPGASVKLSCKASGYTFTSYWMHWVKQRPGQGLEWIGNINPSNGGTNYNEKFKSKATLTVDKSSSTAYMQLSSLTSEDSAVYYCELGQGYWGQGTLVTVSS VL: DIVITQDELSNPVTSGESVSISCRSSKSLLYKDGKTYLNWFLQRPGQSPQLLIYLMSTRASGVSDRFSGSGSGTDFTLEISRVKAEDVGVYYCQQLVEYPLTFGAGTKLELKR", "QUANTITY_KIND": "kon", "UNIT_NAME": "M⁻¹ s⁻¹", "NUMERIC_READOUT": "2.62e+06"}
{"BINDER": "H14L18 (antibody, human IgG1, kappa, V domains shown) VH: QVQLVQSGAEVVKPGASVKLSCKASGYTFTSYWMHWVKQAPGQGLEWIGNINPSNGGTNYNEKFKSRATLTRDTSTSTAYMELSSLRSEDTAVYYCELGQGYWGQGTLVTVSS VL: DIVMTQDPLSNPVTLGQPVSISCRSSKSLLYKDGKTYLNWFLQRPGQSPQLLIYLMSTRASGVSDRFSGSGSGTDFTLKISRVEAEDVGVYYCQQLVEYPLTFGQGTKLEIKR", "QUANTITY_KIND": "kon", "UNIT_NAME": "M⁻¹ s⁻¹", "NUMERIC_READOUT": "2.41e+06"}
